Just for reference, PubChem BioAssay AID1963450 is where these values come from.

// values below are reported viability, T/C
test system: 556581-035-R-J1-PDC complex spheroid growth; test: Anticancer human tumor 556581-035-R-J1-PDC patient-derived ovarian carcinoma cell line growth inhibition [Asc]; conditions: second compound 0.949 µM; first compound 0.01 µM; stronger effect = lower value
assay.metric: viability, T/C (%)

compound: Cn1ncnc1[C@H]1c2n[nH]c(=O)c3cc(F)cc(c23)N[C@@H]1c1ccc(F)cc1 + CCN1C(C(=O)NC23CCC(C(=O)O)(CC2)CC3)C(c2cccc(Cl)c2F)C2(C(=O)Nc3cc(Cl)ccc32)C12CCCCC2
measured.target: 556581-035-R-J1-PDC complex spheroid growth
assay.metric: viability, T/C
scale.unit: %
recorded.measurement: 96.6
--
compound: CNC(C)C(=O)NC1CN(S(=O)(=O)c2cccc(S(=O)(=O)N3CCC4CCC(C(=O)NC(c5ccccc5)c5ccccc5)N4C(=O)C(NC(=O)C(C)NC)C3)c2)CCC2CCC(C(=O)NC(c3ccccc3)c3ccccc3)N2C1=O (stereo unspecified) + CCN1C(C(=O)NC23CCC(C(=O)O)(CC2)CC3)C(c2cccc(Cl)c2F)C2(C(=O)Nc3cc(Cl)ccc32)C12CCCCC2
measured.target: 556581-035-R-J1-PDC complex spheroid growth
assay.metric: viability, T/C
scale.unit: %
recorded.measurement: 81.2
--
compound: CCN1CCN(Cc2ccc(Nc3ncc(F)c(-c4cc(F)c5nc(C)n(C(C)C)c5c4)n3)nc2)CC1 + CCN1C(C(=O)NC23CCC(C(=O)O)(CC2)CC3)C(c2cccc(Cl)c2F)C2(C(=O)Nc3cc(Cl)ccc32)C12CCCCC2
measured.target: 556581-035-R-J1-PDC complex spheroid growth
assay.metric: viability, T/C
scale.unit: %
recorded.measurement: 88.5
--
compound: NC1CCC(NC2CC2c2ccccc2)CC1 (stereo unspecified) + CCN1C(C(=O)NC23CCC(C(=O)O)(CC2)CC3)C(c2cccc(Cl)c2F)C2(C(=O)Nc3cc(Cl)ccc32)C12CCCCC2
measured.target: 556581-035-R-J1-PDC complex spheroid growth
assay.metric: viability, T/C
scale.unit: %
recorded.measurement: 106
--
compound: O=C(c1ccc(F)c(F)c1Nc1ccc(I)cc1F)N1CC(O)([C@@H]2CCCCN2)C1 + CCN1C(C(=O)NC23CCC(C(=O)O)(CC2)CC3)C(c2cccc(Cl)c2F)C2(C(=O)Nc3cc(Cl)ccc32)C12CCCCC2
measured.target: 556581-035-R-J1-PDC complex spheroid growth
assay.metric: viability, T/C
scale.unit: %
recorded.measurement: 119
--
compound: COc1c(OCCCN2CCOCC2)ccc2c3n(c(=NC(=O)c4cnc(N)nc4)nc12)CCN3 + CCN1C(C(=O)NC23CCC(C(=O)O)(CC2)CC3)C(c2cccc(Cl)c2F)C2(C(=O)Nc3cc(Cl)ccc32)C12CCCCC2
measured.target: 556581-035-R-J1-PDC complex spheroid growth
assay.metric: viability, T/C
scale.unit: %
recorded.measurement: 75.2

* * *

tested on: 556581-035-R-J1-PDC complex spheroid growth; test: Anticancer human tumor 556581-035-R-J1-PDC cell line growth inhibition [Asc]; settings: second compound 10 µM; first compound 10 µM; stronger effect = lower value;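 also: spheroids exposed to agents for 7 days before viability read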
assay.metric: viability, T/C (%)

molecule: C=C(F)C(=O)N1CCN(c2nc(OCC3CCCN3C)nc3c2CCN(c2cccc4cccc(Cl)c24)C3)CC1CC#N (stereo unspecified) + Cc1c(S(C)(=O)=O)c(-c2cc(F)cc(N3CCN(c4ccc(NS(=O)(=O)c5ccc(NC(CCN6CCC(C(=O)OCCCP(=O)(O)O)CC6)CSc6ccccc6)c(S(=O)(=O)C(F)(F)F)c5)cc4)CC3)c2)c(-c2ccc(Cl)cc2)n1C(C)C
recorded.measurement: 0.49

* * *

test system: 556581-035-R-J1-PDC complex spheroid growth; experiment: Anticancer human tumor 556581-035-R-J1-PDC cell line growth inhibition [Asc]; details: second compound 3.16 µM; first compound 0.00316 µM; stronger effect = lower value;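 also: spheroids exposed to agents for 7 days before viability read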
viability, T/C for assorted compounds

compound: CNC(C)C(=O)NC1CN(S(=O)(=O)c2cccc(S(=O)(=O)N3CCC4CCC(C(=O)NC(c5ccccc5)c5ccccc5)N4C(=O)C(NC(=O)C(C)NC)C3)c2)CCC2CCC(C(=O)NC(c3ccccc3)c3ccccc3)N2C1=O (configuration not stated) + Cc1c(S(C)(=O)=O)c(-c2cc(F)cc(N3CCN(c4ccc(NS(=O)(=O)c5ccc(NC(CCN6CCC(C(=O)OCCCP(=O)(O)O)CC6)CSc6ccccc6)c(S(=O)(=O)C(F)(F)F)c5)cc4)CC3)c2)c(-c2ccc(Cl)cc2)n1C(C)C
scale.unit: %
viability, T/C: 49.7

compound: Cn1ncnc1[C@H]1c2n[nH]c(=O)c3cc(F)cc(c23)N[C@@H]1c1ccc(F)cc1 + Cc1c(S(C)(=O)=O)c(-c2cc(F)cc(N3CCN(c4ccc(NS(=O)(=O)c5ccc(NC(CCN6CCC(C(=O)OCCCP(=O)(O)O)CC6)CSc6ccccc6)c(S(=O)(=O)C(F)(F)F)c5)cc4)CC3)c2)c(-c2ccc(Cl)cc2)n1C(C)C
scale.unit: %
viability, T/C: 70.2

* * *

tested on: 556581-035-R-J1-PDC complex spheroid growth; test: Anticancer human tumor 556581-035-R-J1-PDC cell line growth inhibition [Asc]; conditions: curve of first compound; second compound 0.316 µM;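 also: spheroids exposed to agents for 7 days before viability read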
Recorded IC50 values for a group of molecules are listed next.

molecule: COc1c(OCCCN2CCOCC2)ccc2c3n(c(=NC(=O)c4cnc(N)nc4)nc12)CCN3 + Cc1c(S(C)(=O)=O)c(-c2cc(F)cc(N3CCN(c4ccc(NS(=O)(=O)c5ccc(NC(CCN6CCC(C(=O)OCCCP(=O)(O)O)CC6)CSc6ccccc6)c(S(=O)(=O)C(F)(F)F)c5)cc4)CC3)c2)c(-c2ccc(Cl)cc2)n1C(C)C
scale.unit: nM
value.operator: =
IC50: 28.4
//
molecule: C#Cc1c(F)ccc2cc(O)cc(-c3ncc4c(N5CC6CCC(C5)N6)nc(OCC56CCCN5CC(F)C6)nc4c3F)c12 (stereo not drawn) + Cc1c(S(C)(=O)=O)c(-c2cc(F)cc(N3CCN(c4ccc(NS(=O)(=O)c5ccc(NC(CCN6CCC(C(=O)OCCCP(=O)(O)O)CC6)CSc6ccccc6)c(S(=O)(=O)C(F)(F)F)c5)cc4)CC3)c2)c(-c2ccc(Cl)cc2)n1C(C)C
scale.unit: nM
value.operator: >
IC50: 10000
//
molecule: Cc1nc(N2CCC3(CC2)COC(C)C3N)c(CO)nc1Sc1ccnc(N)c1Cl (stereo not drawn) + CNC(C)C(=O)NC1CN(S(=O)(=O)c2cccc(S(=O)(=O)N3CCC4CCC(C(=O)NC(c5ccccc5)c5ccccc5)N4C(=O)C(NC(=O)C(C)NC)C3)c2)CCC2CCC(C(=O)NC(c3ccccc3)c3ccccc3)N2C1=O
scale.unit: nM
value.operator: =
IC50: 278

* * *

tested on: 556581-035-R-J1-PDC complex spheroid growth; assay: Anticancer human tumor 556581-035-R-J1-PDC cell line growth inhibition [Asc]; conditions: second compound 0.316 µM; first compound 0.1 µM; stronger effect = lower value;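 also: spheroids exposed to agents for 7 days before viability read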
Binary label based on viability, T/C with cut-off 80%: below gives 1, not below gives -1.

compound: C=CC(=O)N1CCN(c2nc(=O)n(-c3c(C)ccnc3C(C)C)c3nc(-c4c(O)cccc4F)c(F)cc23)C(C)C1 (configuration not stated) + CNC(C)C(=O)NC1CN(S(=O)(=O)c2cccc(S(=O)(=O)N3CCC4CCC(C(=O)NC(c5ccccc5)c5ccccc5)N4C(=O)C(NC(=O)C(C)NC)C3)c2)CCC2CCC(C(=O)NC(c3ccccc3)c3ccccc3)N2C1=O
measured.target: 556581-035-R-J1-PDC complex spheroid growth
discrete.label: -1
--
compound: O=C(c1ccc(F)c(F)c1Nc1ccc(I)cc1F)N1CC(O)([C@@H]2CCCCN2)C1 + Cc1c(S(C)(=O)=O)c(-c2cc(F)cc(N3CCN(c4ccc(NS(=O)(=O)c5ccc(NC(CCN6CCC(C(=O)OCCCP(=O)(O)O)CC6)CSc6ccccc6)c(S(=O)(=O)C(F)(F)F)c5)cc4)CC3)c2)c(-c2ccc(Cl)cc2)n1C(C)C
measured.target: 556581-035-R-J1-PDC complex spheroid growth
discrete.label: 1
--
compound: O=C(c1cc(Cc2n[nH]c(=O)c3ccccc23)ccc1F)N1CCN(C(=O)C2CC2)CC1 + Cc1c(S(C)(=O)=O)c(-c2cc(F)cc(N3CCN(c4ccc(NS(=O)(=O)c5ccc(NC(CCN6CCC(C(=O)OCCCP(=O)(O)O)CC6)CSc6ccccc6)c(S(=O)(=O)C(F)(F)F)c5)cc4)CC3)c2)c(-c2ccc(Cl)cc2)n1C(C)C
measured.target: 556581-035-R-J1-PDC complex spheroid growth
discrete.label: -1
--
compound: C=C(F)C(=O)N1CCN(c2nc(OCC3CCCN3C)nc3c2CCN(c2cccc4cccc(Cl)c24)C3)CC1CC#N (configuration not stated) + CNC(C)C(=O)NC1CN(S(=O)(=O)c2cccc(S(=O)(=O)N3CCC4CCC(C(=O)NC(c5ccccc5)c5ccccc5)N4C(=O)C(NC(=O)C(C)NC)C3)c2)CCC2CCC(C(=O)NC(c3ccccc3)c3ccccc3)N2C1=O
measured.target: 556581-035-R-J1-PDC complex spheroid growth
discrete.label: 1
--
compound: Cn1ncnc1[C@H]1c2n[nH]c(=O)c3cc(F)cc(c23)N[C@@H]1c1ccc(F)cc1 + CNC(C)C(=O)NC1CN(S(=O)(=O)c2cccc(S(=O)(=O)N3CCC4CCC(C(=O)NC(c5ccccc5)c5ccccc5)N4C(=O)C(NC(=O)C(C)NC)C3)c2)CCC2CCC(C(=O)NC(c3ccccc3)c3ccccc3)N2C1=O
measured.target: 556581-035-R-J1-PDC complex spheroid growth
discrete.label: 1
--
compound: CCN1CCN(Cc2ccc(Nc3ncc(F)c(-c4cc(F)c5nc(C)n(C(C)C)c5c4)n3)nc2)CC1 + Cc1c(S(C)(=O)=O)c(-c2cc(F)cc(N3CCN(c4ccc(NS(=O)(=O)c5ccc(NC(CCN6CCC(C(=O)OCCCP(=O)(O)O)CC6)CSc6ccccc6)c(S(=O)(=O)C(F)(F)F)c5)cc4)CC3)c2)c(-c2ccc(Cl)cc2)n1C(C)C
measured.target: 556581-035-R-J1-PDC complex spheroid growth
discrete.label: -1
--
compound: NC1CCC(NC2CC2c2ccccc2)CC1 (configuration not stated) + CNC(C)C(=O)NC1CN(S(=O)(=O)c2cccc(S(=O)(=O)N3CCC4CCC(C(=O)NC(c5ccccc5)c5ccccc5)N4C(=O)C(NC(=O)C(C)NC)C3)c2)CCC2CCC(C(=O)NC(c3ccccc3)c3ccccc3)N2C1=O
measured.target: 556581-035-R-J1-PDC complex spheroid growth
discrete.label: 1
